Data provenance: patent US10647687B2

# Tested on: human neuroblastoma cell line SH-SY5Y
# Test: Inhibition of BSO-induced non-apoptotic cell death (SH-SY5Y/BSO, Example B.1)
# Assay type: cell-based
# Particulars: BSO-induced non-apoptotic cell death, SH-SY5Y cells, 50 μM BSO, 72 hours
Measured Attribute: IC50

Tell me measured IC50 for Clc1cccc(CNC2=Nc3ccccc3NC23CCCNCC3)c1 (centres unmarked) please.
< 50 nM

Tell me measured IC50 for O=S1(=O)CCC2(CC1)Nc1ccccc1N=C2NCc1cccc(Cl)c1 please.
< 1000 nM

---

# Test: Cellular toxicity, Pfa1 cells without TAM (Example B.5)
# Format: cell-based
# Particulars: mouse, * not tested at higher concentrations, read-out: TC50 (the source's name)
Measured Attribute: CC50

Tell me measured CC50 for Cc1cc(CNC2=Nc3ccccc3NC23CCCCC3)on1 [D-17] please.
> 50 µM

Tell me measured CC50 for Clc1cc2c(cc1Cl)NC1(CCCCC1)C(NCc1cccs1)=N2 [D-21] please.
5 to 10 µM

Tell me measured CC50 for Clc1cccc(CNC2=Nc3cc(Cl)ncc3NC23CCCCC3)c1 [D-11] please.
10 to 50 µM

Tell me measured CC50 for c1coc(CNC2=Nc3ccccc3NC23CCCCC3)c1 [D-23] please.
> 50 µM

Tell me measured CC50 for c1ccc2c(c1)CCC2NC1=Nc2ccccc2NC12CCCCC2 [D-2] please.
10 to 50 µM

Tell me measured CC50 for C#CCCCCCCCCC(=O)N1CCC2(CC1)Nc1cc(Cl)c(Cl)cc1N=C2NCc1cccc(Cl)c1 [F-26] please.
10 to 20 µM

Tell me measured CC50 for Clc1cccc(CNC2=Nc3ncccc3NC23CCCCC3)c1 [D-10] please.
1 to 5 µM

Tell me measured CC50 for c1ccc2c(c1)CCCC2NC1=Nc2ccccc2NC12CCCCC2 [D-4] please.
20 to 50 µM

Tell me measured CC50 for c1csc(CNC2=Nc3ccccc3NC23CCCCC3)c1 [D-12] please.
10 to 50 µM

Tell me measured CC50 for c1ccc2c(c1)CCCC2NC1=Nc2ccccc2NC12CCNCC2 [D-7] please.
10 to 20 µM

Tell me measured CC50 for c1ccc2c(c1)N=C(NCc1nccs1)C1(CCCCC1)N2 [D-20] please.
> 50 µM

Tell me measured CC50 for c1csc(CNC2=Nc3ccccc3NC23CCNCC3)c1 [D-181] please.
20 to 50 µM

Tell me measured CC50 for c1ccc(CNC2=Nc3ccccc3NC23CC2CCC(C3)N2)cc1 [D-9] please.
5 to 10 µM

Tell me measured CC50 for c1cncc(CNC2=Nc3ccccc3NC23CCCCC3)c1 [D-13] please.
50 to 100 µM

Tell me measured CC50 for Clc1cccc(CNC2=Nc3ccccc3NC23CC2CCC(C3)N2)c1 [D-8] please.
2 to 5 µM

Tell me measured CC50 for CN1CCC2(CC1)Nc1cc(Cl)c(Cl)cc1N=C2NCc1cccc(Cl)c1 [F-24] please.
0.2 to 0.5 µM

Tell me measured CC50 for c1ccc2c(c1)N=C(NCCc1c[nH]c3ccccc13)C1(CCNCC1)N2 [D-6] please.
5 to 10 µM

Tell me measured CC50 for Clc1cc2c(cc1Cl)NC1(CCCCC1)C(NCc1cccnc1)=N2 [D-19] please.
10 to 50 µM

Tell me measured CC50 for CC(C)(C)NC1=Nc2ccccc2NC12CCOCC2 [D-15] please.
50 to 100 µM

Tell me measured CC50 for c1ccc2c(c1)N=C(NCc1ccncc1)C1(CCCCC1)N2 [D-24] please.
> 50 µM

Tell me measured CC50 for C#CCCCCCCCCC(=O)N1CCC2(CC1)Nc1ccccc1N=C2NCc1cccc(Cl)c1 [F-25] please.
10 to 20 µM

Tell me measured CC50 for c1ccc2c(c1)N=C(NCc1cncs1)C1(CCCCC1)N2 [D-22] please.
> 50 µM

Tell me measured CC50 for c1ccc2c(c1)CCC2NC1=Nc2ccccc2NC12CCOCC2 [D-3] please.
50 to 100 µM

Tell me measured CC50 for CCOC(=O)c1ccc2c(c1)N=C(NC1CCCCC1)C1(CCCCC1)N2 [D-14] please.
10 to 50 µM

Tell me measured CC50 for CC(C)(C)NC1=Nc2ccccc2NC12CCSCC2 [D-16] please.
> 5 µM

Tell me measured CC50 for CC(C)CCNC1=Nc2ccccc2NC12CCCCCC2 [D-1] please.
10 to 50 µM

Tell me measured CC50 for c1ccc2c(c1)CCC2NC1=Nc2ccccc2NC12CCNCC2 [D-5] please.
5 to 10 µM
